Please find below pKi measurements for C-C chemokine receptor type 3 (Homo sapiens, UniProt P51677), combined from several publications.
pKi: −log10 of the molar value.
# label = bin(measured pKi), where bins are category 1 = under 7, category 2 = from 7 up to 8, category 3 = 8 and over

Cc1cc(CN2CCC(N3C(=O)N(C)C[C@H]3C(=O)Nc3cccc(-c4cscn4)c3)CC2)ccc1Cl    category 2
COC(=O)c1cc(NC(=O)[C@H]2CCC(=O)N2C2CCN(Cc3ccc(Cl)c(C)c3)CC2)cn1C    category 2
Cc1cc(CN2CCC(N3C(=O)CC[C@@H]3C(=O)N3CCc4ccccc43)CC2)ccc1Cl    category 1
Cc1cc(CN2CCC(N3C(=O)CC[C@@H]3C(=O)Nc3cccc(C(=O)NCC(C)C)c3)CC2)ccc1Cl    category 3
CC(C)C(=O)N1CCN(S(=O)(=O)c2cc(C#N)ccc2Sc2cc(Cl)cc(Cl)c2)CC1    category 1
CCC(C)N(C)C(=O)c1cc(C)nc(NC(=O)[C@H]2CCC(=O)N2C2CCN(Cc3ccc(Cl)c(C)c3)CC2)c1 (stereo partly shown)    category 3
Cc1cc(CN2CCC(N3C(=O)CC[C@@H]3C(=O)Nc3cc(-n4cccn4)ccn3)CC2)ccc1Cl    category 2
Cc1cc(C(=O)N2CCCC2)cc(NC(=O)[C@H]2CCC(=O)N2C2CCN(Cc3ccc(Cl)c(C)c3)CC2)n1    category 3
